- Target System: Large subunit-rSCFV5 fusion protein
- Sequence (chain, as listed by the source): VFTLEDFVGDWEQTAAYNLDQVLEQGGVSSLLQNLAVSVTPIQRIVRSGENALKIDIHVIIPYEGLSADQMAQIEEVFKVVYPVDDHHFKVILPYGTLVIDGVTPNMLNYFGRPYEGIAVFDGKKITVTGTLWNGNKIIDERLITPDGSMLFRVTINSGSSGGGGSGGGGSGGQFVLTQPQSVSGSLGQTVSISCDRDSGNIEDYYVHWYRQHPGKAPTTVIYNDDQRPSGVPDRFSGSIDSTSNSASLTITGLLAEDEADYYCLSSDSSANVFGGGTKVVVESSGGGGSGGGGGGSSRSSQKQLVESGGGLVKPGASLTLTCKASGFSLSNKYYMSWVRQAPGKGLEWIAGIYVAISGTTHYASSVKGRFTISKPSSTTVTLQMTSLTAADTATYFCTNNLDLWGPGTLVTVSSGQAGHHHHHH
- Method: cell-based or functional assay
Observable: normalised luminescence at PCT 0 pg/ml

VEGYRLFDKKW (peptide, part only; not given: rSCFV18 scFv part, part only) [rSCFV18-small subunit mutant fusion protein RB239]: 5000
VSGWRIHEKIS (peptide, part only; not given: rSCFV18 scFv part, part only) [rSCFV18-small subunit mutant fusion protein RA120]: 5000
VEGYRLFNKEW (peptide, part only; not given: rSCFV18 scFv part, part only) [rSCFV18-small subunit mutant fusion protein RB284]: 5000
VDGWRLHEKIS (peptide, part only; not given: rSCFV18 scFv part, part only) [rSCFV18-small subunit mutant fusion protein RA141]: 5000
